Entry source: PubChem BioAssay (NCI)

Provide the recorded TGI for the entries that follow.
# System: PC-3 prostate
# method-description: NCI tumour cell line growth inhibition, 48 h

Lookup: Could you share which TGI value was measured for `Cn1cc(-c2csc(-c3c[nH]c4ncccc34)n2)c2cc(Br)cnc21` ?
Found: > 100 µM

Lookup: Could you share which TGI value was measured for `CCN1CCC[C@H]1c1cc(O)c2c(c1OC)C[C@H]1C[C@H]3[C@H](N)C(=O)C(C(N)=O)=C(O)[C@@]3(O)C(=O)C1=C2O` ?
Found: 8.76 µM

Lookup: Could you share which TGI value was measured for `ON=C1CCCCC(=NO)CCCC1` ?
Found: > 100 µM

Lookup: Could you share which TGI value was measured for `COc1ccc2c(c1)C(=O)c1c-2n(CCCN=[N+]=[N-])c(=O)c2ccccc12` ?
Found: > 100 µM

Lookup: Could you share which TGI value was measured for CC1=CC(c2ccccc2)OP1(=O)c1ccccc1 (stereo not drawn) ?
Found: > 100 µM

Lookup: Could you share which TGI value was measured for COc1cc2c(cc1OCCCCNC(=O)c1cc3ccccc3[nH]1)N=CC1CCCN1C2=O (stereo not drawn) ?
Found: > 100 µM

Lookup: Could you share which TGI value was measured for `CSc1ccc2c(c1)c(CCN)c(C)n2Cc1ccc(Cl)c(Cl)c1` ?
Found: 3.11 µM

Lookup: Could you share which TGI value was measured for CCCCc1ccc(Nc2nc3c(ncn3C3OC(COC(C)=O)C(OC(C)=O)C3OC(C)=O)c(=O)[nH]2)cc1 (stereo not drawn) ?
Found: 48.1 µM

Lookup: Could you share which TGI value was measured for `O=S(=O)(NCCNc1nccc(-c2c(-c3cccc(O)c3)nc3sccn23)n1)c1ccc(F)cc1` ?
Found: 63.5 µM

Lookup: Could you share which TGI value was measured for `O=C(Oc1cccnc1)c1ccccc1Nc1ccnc(C(F)(F)F)c1` ?
Found: > 100 µM

Lookup: Could you share which TGI value was measured for `COc1ccc2c(c1)/C(=C(\C(Cl)=C(Cl)Cl)[N+](=O)[O-])N2` ?
Found: > 100 µM

Lookup: Could you share which TGI value was measured for `O=C(CSc1nc2ccc(I)cc2c(=O)n1Cc1ccccc1)N/N=C/c1ccccc1` ?
Found: 28.6 µM

Lookup: Could you share which TGI value was measured for `CC(C)OP(=O)(OC(C)C)C(C(F)(F)F)C(F)(F)F` ?
Found: > 100 µM

====

Provide the recorded TGI for the entries that follow.
# Test system: NCI-H226 lung
# method-description: NCI tumour cell line growth inhibition, 48 h
Numbers only here, please. The scale is µM.

Lookup: State its TGI on NCI-H226 lung: `CCOc1ccc(Cc2nccc3cc(OCC)c(OCC)cc23)cc1OCC`
Found: 23.8

Lookup: State its TGI on NCI-H226 lung: `O=C(N[C@H](c1ccc(Cl)c(Cl)c1)C1CNC1)c1ccc2cnccc2c1`
Found: 19.7

Lookup: State its TGI on NCI-H226 lung: `COc1cc2c(cc1C)NC(=O)/C2=C/c1c(Cl)[nH]c2cc(C)c(OC)cc12`
Found: 50.6

Lookup: State its TGI on NCI-H226 lung: `O=[N+]([O-])c1cc2n[nH]nc2c2nonc12`
Found: 40.9

Lookup: State its TGI on NCI-H226 lung: `O=C(Oc1cccnc1)c1ccccc1Nc1ccnc(C(F)(F)F)c1`
Found: 29.3

Lookup: State its TGI on NCI-H226 lung: `O=C(c1cc(=O)c2ccc(O)cc2o1)c1ccc(Cl)cc1Cl`
Found: 99.6

Lookup: State its TGI on NCI-H226 lung: `Cc1ccc2nc3c(Cl)cc(=O)cc-3sc2c1`
Found: 79.1

Lookup: State its TGI on NCI-H226 lung: `CC1=C(N2CC2)C(=O)C(CO)=C(N2CC2)C1=O`
Found: 0.166

Lookup: State its TGI on NCI-H226 lung: `O=C1C=C2S[C@H]3C[C@]2(C=C1Br)c1c(c(O)c2c4c1=NCCC=4C=N2)N3`
Found: 4.86

Lookup: State its TGI on NCI-H226 lung: `Cc1cc2c3ccccc3n(C)c2c2c1C(=O)c1ccccc1C2=O`
Found: 30.5

Lookup: State its TGI on NCI-H226 lung: NC(=O)c1ccccc1NC(=O)C(=O)C(C(=O)c1ccc2ccccc2c1)C1OC(=O)c2ccccc21 (stereo not drawn)
Found: 9.88

====

# Test system: A498 renal
# method-description: NCI tumour cell line growth inhibition, 48 h
Provide the recorded TGI for the entries that follow.

Lookup: Could you share which TGI value was measured for `O=C(NCCCN1CCN(CCCNC(=O)c2cnc3ccccc3n2)CC1)c1cnc2ccccc2n1` ?
Found: > 100 µM

Lookup: Could you share which TGI value was measured for `COc1cccc(Nc2nc(NNC(=O)Cc3ccccc3)nc(NNC(=O)c3ccncc3)n2)c1` ?
Found: > 100 µM

Lookup: Could you share which TGI value was measured for C=CCN1CCC(OC(=O)C(O)(/C=C\CC)C2CCCC2)CC1 (stereo not given) ?
Found: > 100 µM

Lookup: Could you share which TGI value was measured for `O=C(N[C@H](c1ccc(Cl)c(Cl)c1)C1CNC1)c1ccc2cnccc2c1` ?
Found: 10.5 µM

Lookup: Could you share which TGI value was measured for `CC/C(=N\Nc1nc2ccccc2n1C)c1ccccn1` ?
Found: 0.837 µM

Lookup: Could you share which TGI value was measured for `NNC(N)=Nc1cccc2ccccc12` ?
Found: > 100 µM

Lookup: Could you share which TGI value was measured for CSCCC(NC(=O)C(Cc1ccccc1)NC(=O)CNC(=O)CNC(=O)C(N)Cc1ccc(O)cc1)C(=O)O (stereo not given) ?
Found: > 100 µM

Lookup: Could you share which TGI value was measured for `Cn1cc(-c2csc(-c3c[nH]c4ncccc34)n2)c2cc(Br)cnc21` ?
Found: > 100 µM

Lookup: Could you share which TGI value was measured for `Cc1ccc(/C=C(\C#N)n2nnc3cc(Cl)c(Cl)cc32)cc1` ?
Found: 4.59 µM

Lookup: Could you share which TGI value was measured for `CCOc1ccccc1NC(=O)C(=O)CC(=O)C1=C(C)Nc2ccccc2S1` ?
Found: > 100 µM

====

Provide the recorded TGI for the entries that follow.
# System: HOP-62 NSCLC
# method-description: NCI tumour cell line growth inhibition, 48 h

Lookup: Could you share which TGI value was measured for `CSC1=N/C(=C\c2cccs2)C(=O)N1CN1CCOCC1` ?
Found: > 100 µM

Lookup: Could you share which TGI value was measured for C=CCN1CCC(OC(=O)C(O)(/C=C\CC)C2CCCC2)CC1 (stereo unspecified) ?
Found: > 100 µM

Lookup: Could you share which TGI value was measured for CN(Cc1cnc2nc(N)nc(N)c2n1)c1ccc(C(=O)NC(CCS(=O)(=O)O)C(=O)O)cc1 (stereo unspecified) ?
Found: > 100 µM

Lookup: Could you share which TGI value was measured for `COc1ccc2c(c1)/C(=C(\C(Cl)=C(\Cl)N1CCCCC1)[N+](=O)[O-])N2` ?
Found: > 100 µM

Lookup: Could you share which TGI value was measured for C#CCNC(=O)CCC(N)C(=O)O (stereo unspecified) ?
Found: > 100 µM

Lookup: Could you share which TGI value was measured for C=CCCCCOC1C=CC(OC(C)=O)C(COC(C)=O)O1 (stereo unspecified) ?
Found: > 100 µM

Lookup: Could you share which TGI value was measured for `C/C(=N\NC(=O)CC(=O)Nc1ccc(C)cc1)c1cc2ccccc2oc1=O` ?
Found: > 100 µM

Lookup: Could you share which TGI value was measured for `CC1=C(C(=O)Nc2cccc(C(F)(F)F)c2)C(c2ccc(O)cc2)C(C(=O)Nc2cccc(C(F)(F)F)c2)=C(C)N1` ?
Found: 45.5 µM

Lookup: Could you share which TGI value was measured for `CN1CN(c2ccccc2)C2(CCNCC2)C1=O` ?
Found: > 100 µM

Lookup: Could you share which TGI value was measured for `O=[N+]([O-])c1cc2n[nH]nc2c2nonc12` ?
Found: > 100 µM

Lookup: Could you share which TGI value was measured for `C=C1CC[C@@H]2C(C)(C)[C@@H](O)CC[C@@]2(C)[C@@H]1COc1ccc2ccc(=O)oc2c1` ?
Found: 35.6 µM

====

# Tested on: MDA-MB-435
# method-description: NCI tumour cell line growth inhibition, 48 h
Where TGI equals or exceeds 20 µM, the correct label is label 1; where it does not, the label is label 0.

Lookup: Exam item: decide whether the reported TGI for `N#CS/C(C(Cl)=C(Cl)Cl)=C(/Cl)[N+](=O)[O-]` is at least 20 µM.
Found: label 0

Lookup: Exam item: decide whether the reported TGI for `CCOC(=O)/C(C(=S)NC)=C(/N)N1CCCC1` is at least 20 µM.
Found: label 1

Lookup: Exam item: decide whether the reported TGI for `Cc1c2c(c(C)c3c[n+](C)ccc13)Oc1ccccc1O2` is at least 20 µM.
Found: label 1

Lookup: Exam item: decide whether the reported TGI for `COc1cc(/C=C/C(=O)C(=Cc2ccc(F)c(F)c2)C(=O)/C=C/c2ccc(O)c(OC)c2)ccc1O` is at least 20 µM.
Found: label 0

Lookup: Exam item: decide whether the reported TGI for `O=C1C(NS(=O)(=O)c2ccccc2)=C(n2cnc3ccccc32)C(=O)c2ccccc21` is at least 20 µM.
Found: label 1

Lookup: Exam item: decide whether the reported TGI for CC1=CC(c2ccccc2)OP1(=O)c1ccccc1 (stereo unspecified) is at least 20 µM.
Found: label 1

Lookup: Exam item: decide whether the reported TGI for `CN1CN(c2ccccc2)C2(CCNCC2)C1=O` is at least 20 µM.
Found: label 1

Lookup: Exam item: decide whether the reported TGI for `CCCS(=O)(=O)O` is at least 20 µM.
Found: label 1

Lookup: Exam item: decide whether the reported TGI for `NNC(N)=Nc1cccc2ccccc12` is at least 20 µM.
Found: label 1

Lookup: Exam item: decide whether the reported TGI for `CCCCCCc1nn2c(-c3ccc(C)cc3)nnc2s1` is at least 20 µM.
Found: label 1

Lookup: Exam item: decide whether the reported TGI for `CS(C)(=O)=N/C=C\C(=O)C(Cl)(Cl)Cl` is at least 20 µM.
Found: label 1

Lookup: Exam item: decide whether the reported TGI for `O=C(ON=c1c2ccccc2ccc2ccccc12)c1cc([N+](=O)[O-])cc([N+](=O)[O-])c1` is at least 20 µM.
Found: label 1

Lookup: Exam item: decide whether the reported TGI for `NS(=O)(=O)c1nnc(NC(=O)CCC(=O)O)s1` is at least 20 µM.
Found: label 1

Lookup: Exam item: decide whether the reported TGI for `CCOC(=O)c1ccc(N=C2SC(=S)N(c3ccc(F)cc3)C2=Nc2ccc(C(=O)OCC)cc2)cc1` is at least 20 µM.
Found: label 1

Lookup: Exam item: decide whether the reported TGI for COc1cc(/C=C2\C(=O)N(c3cccc(Cl)c3)C(c3ccccc3)S2(=O)=O)cc(OC)c1OC (stereo unspecified) is at least 20 µM.
Found: label 1

Lookup: Exam item: decide whether the reported TGI for COC1/C=C/C(C)C(OC)CC(O)/C=C/C(C)C(C(C)C(OC)C(C)CCC(=O)C(C)C(C/C=C/N(C)C=O)OC)OC(=O)/C=C/C=C(\C)CC(OC)C(OC)C2=CC(=O)O[C@@H](C(C)C(OC)C1)[C@H]2O (stereo partly specified) is at least 20 µM.
Found: label 0

Lookup: Exam item: decide whether the reported TGI for `O=C(CC(=O)c1ccncc1)c1ccccc1` is at least 20 µM.
Found: label 1

Lookup: Exam item: decide whether the reported TGI for `CC/C(=N\Nc1nc2ccccc2n1C)c1ccccn1` is at least 20 µM.
Found: label 0

Lookup: Exam item: decide whether the reported TGI for COc1cc2c(cc1OCCCCNC(=O)c1cc3ccccc3[nH]1)N=CC1CCCN1C2=O (stereo unspecified) is at least 20 µM.
Found: label 1

Lookup: Exam item: decide whether the reported TGI for `CN(CCCNC(=O)c1cn(C)c2c1ccc1cc(Cl)ccc12)CCCNC(=O)c1cn(C)c2c1ccc1cc(Cl)ccc12` is at least 20 µM.
Found: label 0
